The measured values listed here are drawn from ChEMBL document CHEMBL1961873.

Examples of compounds with documented inhibition follow.
MEASURED ON: Hepatocyte growth factor receptor (Homo sapiens) (UniProt P08581)
Sequence (P08581 whole entry): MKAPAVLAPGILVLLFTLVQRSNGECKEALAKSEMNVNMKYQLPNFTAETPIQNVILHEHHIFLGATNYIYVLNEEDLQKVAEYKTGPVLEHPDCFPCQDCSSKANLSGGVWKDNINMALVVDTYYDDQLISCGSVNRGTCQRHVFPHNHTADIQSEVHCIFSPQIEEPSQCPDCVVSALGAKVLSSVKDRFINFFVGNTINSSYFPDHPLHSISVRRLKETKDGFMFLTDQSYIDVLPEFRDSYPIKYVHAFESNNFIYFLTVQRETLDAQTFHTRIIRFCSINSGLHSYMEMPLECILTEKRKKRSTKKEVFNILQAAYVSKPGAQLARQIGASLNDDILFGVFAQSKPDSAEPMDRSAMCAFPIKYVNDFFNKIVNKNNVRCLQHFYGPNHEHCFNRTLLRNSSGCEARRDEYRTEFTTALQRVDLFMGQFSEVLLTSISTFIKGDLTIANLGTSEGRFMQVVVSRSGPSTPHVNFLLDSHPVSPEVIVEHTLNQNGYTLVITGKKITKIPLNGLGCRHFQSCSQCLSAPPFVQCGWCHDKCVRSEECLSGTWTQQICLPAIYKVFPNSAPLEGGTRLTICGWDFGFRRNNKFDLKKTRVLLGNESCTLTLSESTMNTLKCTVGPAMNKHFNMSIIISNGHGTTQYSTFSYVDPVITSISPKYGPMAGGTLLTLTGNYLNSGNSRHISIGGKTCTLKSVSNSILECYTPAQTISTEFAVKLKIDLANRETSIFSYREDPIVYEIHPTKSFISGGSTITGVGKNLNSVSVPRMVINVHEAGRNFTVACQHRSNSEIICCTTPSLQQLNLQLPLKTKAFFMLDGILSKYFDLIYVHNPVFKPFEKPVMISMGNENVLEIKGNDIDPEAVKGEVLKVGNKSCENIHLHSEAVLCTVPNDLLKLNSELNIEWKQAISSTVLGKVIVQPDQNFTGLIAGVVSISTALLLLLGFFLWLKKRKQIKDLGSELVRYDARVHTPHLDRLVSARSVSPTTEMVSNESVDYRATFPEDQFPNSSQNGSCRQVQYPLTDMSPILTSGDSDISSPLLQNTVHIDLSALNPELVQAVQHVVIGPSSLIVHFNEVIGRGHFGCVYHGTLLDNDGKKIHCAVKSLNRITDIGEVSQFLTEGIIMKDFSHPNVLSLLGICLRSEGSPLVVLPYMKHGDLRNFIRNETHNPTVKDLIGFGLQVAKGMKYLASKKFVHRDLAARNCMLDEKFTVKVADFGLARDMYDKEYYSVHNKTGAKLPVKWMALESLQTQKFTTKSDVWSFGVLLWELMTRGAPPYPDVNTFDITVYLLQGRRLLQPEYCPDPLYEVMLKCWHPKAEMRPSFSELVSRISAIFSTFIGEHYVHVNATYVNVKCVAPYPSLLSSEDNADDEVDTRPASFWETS
CONDITION INFO: at 1 µM;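 note: each value is an averaged inhibition figure for MET, taken as the mean across measurements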

STRUCTURE AS SMILES	MEASURED ON	VALUE UNIT	inhibition
O=S(=O)(CCNCc1ccc(-c2ccc3ncnc(Nc4ccc(OCc5cccc(F)c5)c(Cl)c4)c3c2)o1)c1ccccc1	Hepatocyte growth factor receptor (Homo sapiens) (UniProt P08581)	%	6.95
CCN(CC)S(=O)(=O)c1ccc(OC)c(Nc2ncc(-c3ccccc3)o2)c1	Hepatocyte growth factor receptor (Homo sapiens) (UniProt P08581)	%	4.3
Clc1ccc(-c2nn3ncccc3c2-c2ccnc(Nc3ccccc3)n2)cc1	Hepatocyte growth factor receptor (Homo sapiens) (UniProt P08581)	%	4.06
COc1cc(Nc2nccc(Nc3ccc4c(C)n[nH]c4c3)n2)cc(OC)c1OC	Hepatocyte growth factor receptor (Homo sapiens) (UniProt P08581)	%	12.3
COc1cccc(-c2c[nH]c3c(N/N=C/c4ccncc4)ncnc23)c1	Hepatocyte growth factor receptor (Homo sapiens) (UniProt P08581)	%	27.3
COC(=O)c1sc(-n2cnc3cc(OC)c(OC)cc32)cc1OCc1ccccc1C(F)(F)F	Hepatocyte growth factor receptor (Homo sapiens) (UniProt P08581)	%	6.35
Cc1cccc2c1NC(=O)/C2=N\Nc1ccc(S(N)(=O)=O)cc1	Hepatocyte growth factor receptor (Homo sapiens) (UniProt P08581)	%	-0.51
Fc1ccc(-c2nn3ncccc3c2-c2ccnc(Nc3ccc4c(c3)OCCO4)n2)cc1	Hepatocyte growth factor receptor (Homo sapiens) (UniProt P08581)	%	10.7
CC(C)COC(=O)c1ccc2c(c1)/C(=C/Nc1ccc(S(N)(=O)=O)cc1)C(=O)N2	Hepatocyte growth factor receptor (Homo sapiens) (UniProt P08581)	%	13.3
COc1ccc(-c2oc3ncnc(N)c3c2-c2ccc(NC(=O)Nc3cc(C(F)(F)F)ccc3F)cc2)cc1	Hepatocyte growth factor receptor (Homo sapiens) (UniProt P08581)	%	63.2
c1ccc(-c2nc3n(c2-c2ccc4c(c2)OCO4)CCC3)nc1	Hepatocyte growth factor receptor (Homo sapiens) (UniProt P08581)	%	-1.42
CC(C)(CO)CNC(=O)c1ccc2c(c1)/C(=N/Nc1ccc(S(N)(=O)=O)cc1)C(=O)N2	Hepatocyte growth factor receptor (Homo sapiens) (UniProt P08581)	%	9.33
CCn1c(-c2nonc2N)nc2cnc(Oc3cccc(NC(=O)c4ccc(N(C)C)cc4)c3)cc21	Hepatocyte growth factor receptor (Homo sapiens) (UniProt P08581)	%	-4.37
O=C(Nc1n[nH]c2cc(-c3ccc(F)cc3)ccc12)C1CC1	Hepatocyte growth factor receptor (Homo sapiens) (UniProt P08581)	%	0.71
COc1ccc2[nH]c3c4[nH]c5ccc(OC)cc5c4c4c(c3c2c1)C(=O)NC4=O	Hepatocyte growth factor receptor (Homo sapiens) (UniProt P08581)	%	19.8
Fc1ccc(-c2nn3ccccc3c2-c2ccncc2)cc1	Hepatocyte growth factor receptor (Homo sapiens) (UniProt P08581)	%	3.37
CCc1nn2ncccc2c1-c1ccnc(NC2CC2)n1	Hepatocyte growth factor receptor (Homo sapiens) (UniProt P08581)	%	4.86
CCCN1CCC(c2ccc(Nc3nc(Nc4cc(F)ccc4C(N)=O)c4cc[nH]c4n3)c(OC)c2)CC1	Hepatocyte growth factor receptor (Homo sapiens) (UniProt P08581)	%	22.9
CC(=O)Nc1cccc(C#Cc2cncnc2Nc2ccc(OCc3cccc(F)c3)c(Cl)c2)c1	Hepatocyte growth factor receptor (Homo sapiens) (UniProt P08581)	%	1.83
NC(=O)c1sc(-n2cnc3ccc(C(F)(F)F)cc32)cc1OCc1ccccc1Br	Hepatocyte growth factor receptor (Homo sapiens) (UniProt P08581)	%	-0.12
